System: SK-MEL-2 melanoma
Assay: NCI-60 one-dose screen, 48 h (100 = growth as untreated, 0 = no growth, -100 = all killed)
Conditions: 10 µM
About 83,000 compounds went through this panel and 20% of them were active in at least one assay; those are over-represented in the sample as a whole.
reported-metric: growth (%)
All answers are understood in %, so give the number only.

Past entries and their recorded results:
Cc1ccc(-c2nc(Nc3ccc(S(N)(=O)=O)cc3)c3ccccc3n2)cc1	99.9
CC(C)(C)c1ccc(NCc2cn(-c3ccc(C(=O)O)cc3)nc2-c2ccc(C#N)cc2)cc1	53.1

Q: So what does the record say about growth for `COc1ccc2c3nc4cc(C)c(C)cc4nc3n(CCN(C)C)c2c1` ?
Ans: -4.58

Q: Repeat with `CCCCCCCCCCCCCCCCCCCC(=O)NCCc1c[nH]c2ccc(OC(=O)NOCCOCCOCCOCCOCCOCCOCCOCCOCCOCCOCCOCCOCCOCCOCCOCCOCCOCCOCCOCCOCCOCCOC)cc12`
Ans: -68.5

Q: Subsequent entry: `COc1ccc(-c2nc(S(=O)(=O)c3ccccc3)c(S(C)(=O)=O)o2)cc1`
Ans: 69.7

Q: // next record `COc1ccc(NC(=O)Nc2ccc(OCC(=O)N=Nc3c(O)[nH]c4ccc([N+](=O)[O-])cc34)cc2)cc1`
Ans: 89.4

Q: And then `O=C(NC(=S)N1CCN(c2ncnc3c2cnn3-c2ccccc2)CC1)c1ccc(Cl)cc1` , what is it?
Ans: 88.8

Q: Thanks! And O=C(Cc1ccc2c(c1)CN(C1CCC(=O)NC1=O)C2=O)NCCc1ccccc1 (stereo not drawn) ?
Ans: 26

====

Test system: U251 CNS
Test: NCI-60 one-dose screen, 48 h (100 = growth as untreated, 0 = no growth, -100 = all killed)
Settings: 10 µM
The panel holds about 83,000 compounds, 20% with a hit somewhere; the sample as a whole holds those more often.
reported-metric: growth (%)
The response must be a number in % with no trailing unit.

For orientation, consider the following solved cases.
CCCCSc1nc(Nc2ccc(/C(C)=N/NC(N)=S)cc2)c(C#N)c(-c2ccc(OC)cc2)n1	22.8
C=C[C@@]12CN3CC[C@]1(O)[C@@](C(=O)OC)(CO2)c1[nH]c2ccccc2c1C3	81.8
COc1ccc2ncc(C#Cc3cncc(C(=O)Nc4ccc(CN5CCN(C)CC5)c(C(F)(F)F)c4)c3)n2n1	-59.8
COc1cc(/C=C/C(=O)c2cc(OC)c(OC)c(OC)c2)ccc1Oc1nc(Nc2ccc(F)cc2)nc(N(C)C)n1	-72.9
O=C1NC(=NC23CC4CC(CC(C4)C2)C3)N/C1=C\c1ccc2ncccc2n1	5.17
CONC[C@]1(C)C=C2C(=O)[C@](C)(O)C3(CC3)C(C)=C2[C@H]1O	3.39
O=C1Nc2ccc(F)cc2/C1=C/c1cccc(OCc2ccccn2)c1	7.32
O=C(Nc1ccc(I)cc1F)c1cc(-c2ccc(F)cc2F)ccc1O	4.61
CCCCOc1ccc(Nc2nc3ccccc3nc2Nc2ccc(OCCCC)cc2)cc1	67.3
Cc1ccc2nc3c(nc2c1)c1cc(I)ccc1n3CCN(C)C	24.2

Q: Form field - read-out: growth; system: U251 CNS; submitted item: `Cc1cccc(-c2nc(Nc3ccccc3C(=O)O)c3ccccc3n2)c1`
Ans: 26.6

Q: Now consider `CC1=C2C(=C[C@@](C)(COCOCCCl)[C@@H]2O)C(=O)[C@](C)(O)C12CC2` and answer again.
Ans: 1.56

Q: Another: `COc1ccc2[nH]c(O)c(N=NC(=O)c3cc(-c4ccc(C)cc4)nc4ccccc34)c2c1`
Ans: 88.5

Q: Would you kindly repeat that for `Cc1ccc(-c2ccc(SCC(=O)Nc3ccc(Cl)c(C(F)(F)F)c3)nn2)cc1` ?
Ans: 16.5

Q: Try this molecule next: `COc1cc(/C=C/C(=O)c2ccc(NC(=O)CSc3nnc(-c4c[nH]c5ccccc45)n3-c3ccccc3)cc2)cc(OC)c1OC`
Ans: 18.7

Q: How about this molecule: `COc1cccc(-c2ccnc(/N=C(\N)Nc3ccc(S(=O)(=O)Nc4nc(C)cc(C)n4)cc3)n2)c1`
Ans: 101

Q: And the next one, `O=C(Nc1cccc(-c2cn(-c3ccc4oc(=O)ccc4c3)nn2)c1)Nc1cc(C(F)(F)F)cc(C(F)(F)F)c1` ?
Ans: 13.4

Q: Field entry: `COc1ccc(-c2cc(-c3cc(C(=O)c4ccccc4)n4ccc(C)cc34)nc(N)c2C#N)cc1`
Ans: 45.4

Q: Repeat for the following molecule: `CN1CCN(Cc2ccc(C(=O)Nc3cccc(Nc4ccc5cc(O)ccc5n4)c3)cc2C(F)(F)F)CC1`
Ans: -65
